# System Under Test: cellular PARG (Homo sapiens, UniProt Q86W56)
# Construct: endogenous in cells
# Sequence (Q86W56 whole entry): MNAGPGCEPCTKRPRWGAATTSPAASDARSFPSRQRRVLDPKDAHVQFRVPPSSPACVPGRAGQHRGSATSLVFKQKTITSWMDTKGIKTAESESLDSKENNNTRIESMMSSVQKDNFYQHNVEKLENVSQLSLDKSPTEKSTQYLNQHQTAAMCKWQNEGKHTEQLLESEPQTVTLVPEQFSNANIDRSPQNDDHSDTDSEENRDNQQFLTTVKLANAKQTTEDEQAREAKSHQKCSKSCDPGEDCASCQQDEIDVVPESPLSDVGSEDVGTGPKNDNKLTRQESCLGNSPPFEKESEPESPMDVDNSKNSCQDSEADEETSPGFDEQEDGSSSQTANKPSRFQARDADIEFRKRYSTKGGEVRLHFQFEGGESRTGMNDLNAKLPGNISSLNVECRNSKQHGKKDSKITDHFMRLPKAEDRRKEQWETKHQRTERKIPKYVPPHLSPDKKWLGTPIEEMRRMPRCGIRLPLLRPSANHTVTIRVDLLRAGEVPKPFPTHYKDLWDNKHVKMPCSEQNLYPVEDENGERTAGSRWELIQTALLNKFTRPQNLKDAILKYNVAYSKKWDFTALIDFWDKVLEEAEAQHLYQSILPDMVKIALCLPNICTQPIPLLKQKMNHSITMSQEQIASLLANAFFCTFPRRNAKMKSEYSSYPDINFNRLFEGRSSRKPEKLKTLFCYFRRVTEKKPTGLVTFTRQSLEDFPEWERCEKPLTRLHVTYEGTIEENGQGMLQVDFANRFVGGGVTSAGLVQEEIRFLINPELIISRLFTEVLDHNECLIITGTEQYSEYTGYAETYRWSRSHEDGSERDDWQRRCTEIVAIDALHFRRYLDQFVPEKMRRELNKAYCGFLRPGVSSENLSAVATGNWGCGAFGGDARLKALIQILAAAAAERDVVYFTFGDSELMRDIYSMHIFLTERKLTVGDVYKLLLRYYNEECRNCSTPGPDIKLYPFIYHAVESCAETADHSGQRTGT
# Measurement Protocol: Nuclear PAR accumulation assay (immunofluorescence high-content imaging)
# Settings: HeLa cells, 1 hour compound treatment then MMS 50 μg/mL for an additional hour
Result Type: IC50

Data request: # query: IC50 of entry Cn1cc(CN2C(=O)c3cc(S(=O)(=O)NC4(C)CC4)ccc3N3C2=N[C@H]2COC[C@H]23)cn1 [Example 93]
Data returned: ≤ 100 nM

Data request: # query: IC50 of entry Cc1ncc(CN2C(=O)c3cc(S(=O)(=O)NC4(C)CC4)ccc3N3C2=NC[C@@H]3C(C)C)s1 [Example 19]
Data returned: > 10000 nM

Data request: # query: IC50 of entry C#C[C@H]1CN=C2N(Cc3cnc(C)s3)C(=O)c3cc(S(=O)(=O)NC4(C)CC4)ccc3N21 [Example 15]
Data returned: 100 to 1000 nM

Data request: # query: IC50 of entry C#C[C@H]1CN=C2N(Cc3c(C)noc3C)C(=O)c3cc(S(=O)(=O)NC4(C)CC4)ccc3N21 [Example 72]
Data returned: ≤ 100 nM

Data request: # query: IC50 of entry CCN1C(=O)c2cc(S(=O)(=O)NC3(C)CC3)ccc2N2C1=NC[C@@H]2C1CC1 [Example 25]
Data returned: > 10000 nM

Data request: # query: IC50 of entry C[C@@H]1CN=C2N(Cc3cnn(C)c3)C(=O)c3cc(S(=O)(=O)NC4(C)CC4)cc(C4=CCN(C)CC4)c3N21 [Example 131]
Data returned: ≤ 100 nM

Data request: # query: IC50 of entry C[C@@H]1CN=C2N(Cc3cnn(C)c3)C(=O)c3cc(S(=O)(=O)NC4(C)CC4)c(F)cc3N21 [Example 74]
Data returned: ≤ 100 nM

The reported numbers originate from patent US12435092B2.
